These data points were gathered from patent EP4631940A1.

assay: PK study in ICR mice (whole blood); assay type: in vivo; settings: mouse, Female ICR mice, IV 1 mg/kg, read-out: C0
The following compounds are listed with their measured C0 values.

# Smiles str, C0
measured = [
    ("CCc1c(F)ccc2cc(O)cc(-c3ncc4c(N5CCC[C@@](C)(O)C5)nc(OC[C@]56CCCN5[C@@H](COC(=O)N5CCC7(CC5)CC(C(=O)N[C@H](C(=O)N5C[C@H](O)C[C@H]5C(=O)N[C@@H](C)c5ccc(-c8scnc8C)cc5)C(C)(C)C)C7)CC6)nc4c3F)c12", "5000 ng/mL"),
    ("CCc1c(F)ccc2cc(O)cc(-c3ncc4c(N5CCC[C@@](C)(O)C5)nc(OCC5(CN6CCC7(CC6)CC(c6cn([C@H](C(=O)N8C[C@H](O)C[C@H]8C(=O)N[C@@H](C)c8ccc(-c9scnc9C)cc8)C(C)C)nn6)C7)CC5)nc4c3F)c12", "5560 ng/mL"),
    ("CCc1c(F)ccc2cc(O)cc(-c3ncc4c(N5CCC[C@@](C)(O)C5)nc(OCC5(CN6CCC(c7ccc(-c8cn([C@H](C(=O)N9C[C@H](O)C[C@H]9C(=O)N[C@@H](C)c9ccc(-c%10scnc%10C)cc9)C(C)C)nn8)cc7)CC6)CC5)nc4c3F)c12", "2840 ng/mL"),
]
